target.entity: ceh-52 (C07E3.5) (Caenorhabditis elegans)
Sequence: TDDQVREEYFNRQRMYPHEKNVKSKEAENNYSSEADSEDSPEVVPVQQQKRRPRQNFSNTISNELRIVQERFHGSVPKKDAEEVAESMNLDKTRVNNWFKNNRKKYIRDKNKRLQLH
readout.type: binding signal (PBM E-score (-0.5 to 0.5))

Answered cases to consult:
sequence.text | meas.value
ATAACACC (double strand) [8-mer ATAACACC] | 0.457
AGTGTTAT (double strand) [8-mer AGTGTTAT] | 0.454
GGGAGTTA (double strand) [8-mer GGGAGTTA] | 0.459

Req: GET binding signal (PBM E-score (-0.5 to 0.5)) where system = ceh-52 (C07E3.5) (Caenorhabditis elegans) and item = AAGAGTTA (double strand) [8-mer AAGAGTTA]
Resp: 0.463

Req: GET binding signal (PBM E-score (-0.5 to 0.5)) where system = ceh-52 (C07E3.5) (Caenorhabditis elegans) and item = TAACTCTA (double strand) [8-mer TAACTCTA]
Resp: 0.459

Req: GET binding signal (PBM E-score (-0.5 to 0.5)) where system = ceh-52 (C07E3.5) (Caenorhabditis elegans) and item = AGAGTTAA (double strand) [8-mer AGAGTTAA]
Resp: 0.452

Req: GET binding signal (PBM E-score (-0.5 to 0.5)) where system = ceh-52 (C07E3.5) (Caenorhabditis elegans) and item = ATAACTCC (double strand) [8-mer ATAACTCC]
Resp: 0.482

Req: GET binding signal (PBM E-score (-0.5 to 0.5)) where system = ceh-52 (C07E3.5) (Caenorhabditis elegans) and item = AGAGTTAT (double strand) [8-mer AGAGTTAT]
Resp: 0.481

Req: GET binding signal (PBM E-score (-0.5 to 0.5)) where system = ceh-52 (C07E3.5) (Caenorhabditis elegans) and item = GAGTTATA (double strand) [8-mer GAGTTATA]
Resp: 0.465

Req: GET binding signal (PBM E-score (-0.5 to 0.5)) where system = ceh-52 (C07E3.5) (Caenorhabditis elegans) and item = GGTGTTAA (double strand) [8-mer GGTGTTAA]
Resp: 0.459

Req: GET binding signal (PBM E-score (-0.5 to 0.5)) where system = ceh-52 (C07E3.5) (Caenorhabditis elegans) and item = GGAGTTAA (double strand) [8-mer GGAGTTAA]
Resp: 0.464

Req: GET binding signal (PBM E-score (-0.5 to 0.5)) where system = ceh-52 (C07E3.5) (Caenorhabditis elegans) and item = GGGGTTAA (double strand) [8-mer GGGGTTAA]
Resp: 0.454

Req: GET binding signal (PBM E-score (-0.5 to 0.5)) where system = ceh-52 (C07E3.5) (Caenorhabditis elegans) and item = TAACTCCA (double strand) [8-mer TAACTCCA]
Resp: 0.475

---

target.entity: end-1 (F58E10.2) (Caenorhabditis elegans)
Sequence: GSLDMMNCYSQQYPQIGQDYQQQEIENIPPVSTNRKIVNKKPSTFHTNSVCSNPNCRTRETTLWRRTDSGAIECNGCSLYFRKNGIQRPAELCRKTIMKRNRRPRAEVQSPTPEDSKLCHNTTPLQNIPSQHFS
Recorded binding signal (PBM E-score (-0.5 to 0.5)) for the following sequences

sequence.text | meas.value
CGATAAGA (double strand) [8-mer CGATAAGA] | 0.487
GATATCGA (double strand) [8-mer GATATCGA] | 0.484
AGATAAGA (double strand) [8-mer AGATAAGA] | 0.484

Pending sequence:
Req: GET binding signal (PBM E-score (-0.5 to 0.5)) where system = end-1 (F58E10.2) (Caenorhabditis elegans) and item = ATCTAATC (double strand) [8-mer ATCTAATC]
Resp: 0.487
